System: NCI-H23 lung
run description: NCI tumour cell line growth inhibition, 48 h
I'd appreciate it if you could supply TGI values for the items below.

The following compounds have reported results that may help.
O=C1NC(c2ccccc2)C1N(Cc1ccccc1)Cc1ccccc1 (stereo unspecified) : > 100 µM
CC1(C)CC(C2CC(C)(C)CC(C)(C)[C@H]2O)[C@@H](O)C(C)(C)C1 (stereo partly specified) : > 100 µM
COc1ccc(OC)c(CC(=O)c2ccc(O)c(C(=O)NCCc3ccc(F)cc3)c2)c1 : 14.2 µM

Batch: TGI for all items listed.
1. OCCC#Cc1ccccc1C#Cc1ccccc1
2. COC(=O)C1CCCCCCCCCCC12SCCCS2 (stereo unspecified)
3. c1ncc(C23C4C5C6C4C2C6C53)[nH]1 (stereo unspecified)
4. O=C1C(c2c(O)n(-c3ccccc3)c3ccccc23)=Nc2ccccc21
5. Nc1nc(SCC(=O)c2ccccc2)nc2nc3c(c(-c4ccccc4)c12)CCCC3
6. CNS(=O)(=O)NN(C)S(=O)(=O)c1ccc(C)cc1

39.9 µM
> 100 µM
> 100 µM
> 100 µM
> 100 µM
> 100 µM

Hi team, please reply with TGI for each item in this list.
1. COC(=O)[C@H]1[C@H](OC(=O)[C@@H](OC)c2ccccc2)ON2CC[C@@H](OC(=O)c3ccccc3)[C@H]12
2. C=C1C(=O)C23C(O)C1CCC2C12CO[C@]3(O)[C@@H](O)C1C(C)(C)CCC2O (stereo partly specified)

1: > 100 µM; 2: 43.4 µM

###

System: A549 NSCLC
run description: NCI tumour cell line growth inhibition, 48 h
Where a SMILES comes first, the peptide text is derived from it. The star is where a group is joined. Cbz = O=C(OCc1ccccc1)*; Boc = CC(C)(C)OC(=O)*; OBn = c1ccc(CO*)cc1
Assign TGI to each entry below.

Known results for molecules:
N/C(=N/O)c1cn(C2OC(CO)C(O)C2O)c2ncnc(NO)c12 (configuration not stated) : > 100 µM
COC(=O)CC(CC(=O)C(=O)OC)C(=O)OC (configuration not stated) : > 100 µM
Brc1ccc(C2(N3CCCCC3)CCCCC2)s1 : > 100 µM
N#CCCN(CCC#N)c1ccc(/C=C2\N=C(c3ccccc3)N(NC(=O)c3ccncc3)C2=O)cc1 : > 100 µM
CN(C)c1ccc(C=Nc2ccc(-c3nc4ccccc4o3)cc2)cc1 : > 100 µM

List TGI for every entry below, keeping the order given.
1. COC(=O)[C@@]12C3=NO[C@]1(C(=O)OC)C(O[Si](C)(C)C(C)(C)C)C1OC(C)(C)OC1[C@@H]2[C@@H](OCc1ccccc1)CC3 (some centres not stated)
2. Cc1ccc2c(c1)/C(=N\N=C/c1cn(C(C)C)c3ccccc13)C(=O)N2
3. COC(=O)C(CCCCNC(=O)OCc1ccccc1)NC(=O)C(CCC(=O)OCc1ccccc1)NC(=O)OC(C)(C)C (configuration not stated) (Boc-Glu(OBn)-Lys(Cbz)-OMe; configuration not given here)
4. CCCCCNC(=O)C1C(=O)N(CCCCC)C(=O)/C1=N\N (configuration not stated)
5. Nc1cccc2cc(S(=O)(=O)Nc3ccc(C(=O)O)cc3)ccc12
6. Cc1ccc(C)c(NC(=O)CCC(=O)CC(=O)C(C)(C)C)c1

1: > 100 µM; 2: > 100 µM; 3: > 100 µM; 4: > 100 µM; 5: > 100 µM; 6: > 100 µM

Batch: TGI for all items listed.
1. CC1(c2nc3ccccc3[nH]2)CCC(CO)C(C)(C)O1 (configuration not stated)
2. CC(=O)NNc1nc(C)c(C(/C=C/c2ccc3c(c2)OCO3)=N/NC(=O)c2ccncc2)s1
3. CCCCC[C@H]1CC=CC(=O)O1

> 100 µM
> 100 µM
60.5 µM

# return TGI for each item in the list
1. CC(C)Cn1cnnc1NS(=O)(=O)c1cc(C(=O)NN)c(Cl)cc1S
2. O=C(Nc1ccc(Cl)cc1)C(=O)C1=C(O)c2ccccc2OC1
3. c1ccc(COc2ccc(Nc3ncnc4ccc(-c5ccco5)cc34)cc2)cc1

1. > 10 µM
2. > 100 µM
3. > 25 µM

###

Task for the reader: assign each of the following compounds its reported TGI.
Tested on: OVCAR-5 ovarian
run description: NCI tumour cell line growth inhibition, 48 h
Numbers only, in µM.

Previously resolved entries follow.
O=C1c2cccnc2-c2nc(-c3ccccc3)cc3c2c1nc1ccccc13 : 30.8
CCC/C(Cl)=N/OC(=O)Nc1cccc(F)c1 : 36.3
O=C(/C=C/c1cccnc1)/C=C/c1cccnc1 : 5.03
CC/C(=C(/CC)c1ccc(OP(=O)([O-])[O-])cc1)c1ccc(OP(=O)([O-])[O-])cc1.N.N.N.N.[Pt+4].[Pt+4] : 77.8
COc1ccc(C(NCCNC(c2ccc(OC)c(OC)c2)c2cc3c(cc2O)OCO3)c2cc3c(cc2O)OCO3)cc1OC (stereo not given) : 11.6

Would you be so kind as to report TGI for each listed record?
1. CCN1CCC(O)(c2ccccc2)C(C(=O)c2ccccc2)C1 (stereo not given)
2. ClCc1nc2cc(Cl)ccc2o1

1. 37.5
2. 38.6

###

Tested on: SNB-75 CNS
run description: NCI tumour cell line growth inhibition, 48 h
Assign TGI to each entry below.
Numbers only, in µM.

Examples from the recorded data:
COC(=O)[C@H]1[C@H](OC(=O)[C@@H](OC)c2ccccc2)ON2CC[C@@H](OC(=O)c3ccccc3)[C@H]12 : 65.1
CN(C)c1ccc(N=C(C#N)c2nc(N)nc(N3CCOCC3)n2)cc1 : 49.4
CC1(C)CC[C@]2(C(=O)O)CCC3(C)C(=CCC4[C@@]5(C)CC[C@H](OC6OCC(O)C(O)C6OC6OC(CO)C(O)C(O)C6O)C(C)(C)C5CC[C@]43C)C2C1 (some centres not stated) : 4.6
COc1cc(/C=C2\N=C(c3ccccc3)N(/N=C/c3cc4cc(C)ccc4nc3Cl)C2=O)ccc1O : 83.9
CCN1C(=O)N(CC)C2C1NN=c1s/c(=C\c3ccc([N+](=O)[O-])cc3)c(=O)n12 (configuration not stated) : 0.783
C=C1C(=O)OC2C3C(=C)[C@@H](OC(C)=O)CC3C(C)=CC(OC(=O)C(C)(O)C(C)OC(C)=O)[C@@H]12 (some centres not stated) : 28.4

For each entry beneath this line, provide reported TGI.
1. O=C1/C(=C\c2ccccc2)CN(C(=O)c2ccccc2F)C/C1=C\c1ccccc1
2. c1ccc(CNc2nc(Nc3ccc(-c4nc5ccccc5[nH]4)cc3)c3cn[nH]c3n2)cc1
3. C/C(=N\NC(=S)Nc1ccccc1)c1ccccn1

1: 14.5; 2: 47.1; 3: 11

###

System: OVCAR-8 ovarian
run description: NCI tumour cell line growth inhibition, 48 h
measurement type: TGI

S=c1nc(/C=C/c2ccc(Cl)c(Cl)c2)[nH][nH]1 : > 100 µM
O=C(NCCS(=O)(=O)N1C(=O)C2CCCN2C(=O)[C@@H]1Cc1ccccc1)OCc1ccccc1 (stereo not given in full) : > 100 µM
O=C(O)C1CCCCN1CCc1c[nH]c2ccccc12 (stereo not given) : > 100 µM
CC(C)(C)OC(=O)N1CCC[C@H]1CSC[C@@H]1CCCN1C(=O)OC(C)(C)C : > 100 µM

Can you give me TGI for all of these, one by one?
1. CNC1=C(C)C(=O)C2=C(C1=O)C(COC(N)=O)C1(OC)C3NC3CN21 (stereo not given)
2. CSc1nc(NC2OC(CO)C(O)C(O)C2O)c(N)c(=O)n1C (stereo not given)
3. CC(=O)[CH-]C(=O)c1ccccc1.CC(=O)[CH-]C(=O)c1ccccc1.[O-]Cc1cccs1.[O-]Cc1cccs1.[Ti+4]
4. O=C(CN1c2ccccc2Sc2ccccc21)n1cnc2ccccc21
5. CSc1ccc(C=C2N=C(c3ccccc3)N(c3cc(C(=O)c4ccccc4)ccc3N3C(=O)/C(=C/c4ccc(SC)cc4)N=C3c3ccccc3)C2=O)cc1
6. Cn1cc(-c2csc(-c3cn(C)c4ncccc34)n2)c2ccccc21

11 µM
> 100 µM
> 100 µM
> 100 µM
> 100 µM
22.7 µM

Could you tell me TGI for each of these compounds? They are listed below.
1. COc1ccc(C(=O)Nc2ccccc2C#N)cc1
2. COC(=O)CC(CC(=O)C(=O)OC)C(=O)OC (stereo not given)

1: > 100 µM; 2: > 100 µM

Lab note: each compound below needs its TGI filled in.
1. Cc1ccc(NC(=O)c2cc(S(=O)(=O)N3CCNNC3=O)c(S)cc2Cl)cc1
2. N#Cc1c(-c2ccccc2)cc(Nc2ccc(F)cc2)n2c1nc1ccccc12
3. OCCC#Cc1ccccc1C#Cc1ccccc1
4. COc1ccccc1NS(=O)(=O)c1cc(C(C)(C)C)ccc1OCCOc1ccc(C(C)(C)C)cc1S(=O)(=O)Nc1ccccc1OC
5. C/C=C(\C)C(=O)O[C@@H]1C=CC(=O)O[C@H]1COC(=O)[C@H](C)O

1. > 100 µM
2. > 32.7 µM
3. 66.9 µM
4. > 100 µM
5. > 100 µM

# batch: return TGI for each of the 3 compounds below
1. COc1ccc(/C=N/Nc2nc3ccccc3c(=O)n2-c2ccccc2)cc1
2. CCN1CCC(O)(c2ccccc2)C(C(=O)c2ccccc2)C1 (stereo not given)
3. Cc1cc2c(cc1-c1cc3c(cc1C)C(C(C)C)=C(O)C(=O)/C3=C\Nc1cccc3c(N)cccc13)/C(=C/Nc1cccc3c(N)cccc13)C(=O)C(O)=C2C(C)C

> 100 µM
63.7 µM
> 100 µM
